# Test system: NCI-H292 lung cancer cells
# experimentalDetails: FDA drug screening, complete media vs cholesterol-free media with simvastatin (TABLE 2)
# Format: cell-based, human
# measurementConditions: complete media minus cholesterol-free media + simvastatin (0.04 μM); >0 enhanced anti-cancer activity, about 0 neutral, <0 antagonist
Could you please report measured Difference for the items listed next?

>>> print(df.to_string())
                                 compound  recordedvalue
0  CCn1cc(C(=O)O)c(=O)c2cnc(N3CCNCC3)nc21          −0.02
1         Cc1nnc(NS(=O)(=O)c2ccc(N)cc2)s1          −0.02

Turning now to a further compound:
## Input # assay system NCI-H292 lung cancer cells: give Difference of Nc1nc(O)c2ncn(COC(CO)CO)c2n1 [Ganciclovir]
## Output −0.02

###

# Test system: NCI-H292 lung cancer cells
# experimentalDetails: FDA drug screening, complete media vs cholesterol-free media without statin (TABLE 1)
# Type: cell-based, human
# measurementConditions: NCI-H292 cells, cholesterol-free media without statin, FDA drug library screen
Could you please mark Satisfied for values of Cholesterol-free below 0.8 and Not satisfied for values at or above it?

>>> df
                             moleculesmiles  classassignment
0        CCCN(CCC)S(=O)(=O)c1ccc(C(=O)O)cc1    Not satisfied
1  O=C1C(O)=C([C@H]2CC[C@H](c3ccc(Cl)cc3)CC2)C(=O)c2ccccc21    Not satisfied
2                       CC(C)(O)C(Cl)(Cl)Cl        Satisfied

Proceed to the following item.
## Input Does this molecule meet the criterion Cholesterol-free < 0.8? CC[C@]12CCCN3CCc4c(n(c5ccccc45)[C@@](O)(C(=O)OC)C1)[C@@H]32
## Output Satisfied

###

Could you please report measured Complete for the items listed next?
# Test system: NCI-H292 lung cancer cells
# experimentalDetails: FDA drug screening, complete media vs cholesterol-free media without statin (TABLE 1)
# Format: cell-based, human
# measurementConditions: NCI-H292 cells in complete media
Structures can show the parent of a compound that is named as a salt.
Answers are plain numbers.

Example entries and their recorded answers appear below.
compound	Complete
Cc1ccc2c(c1)c1c(n2CCc2ccc(C)nc2)CCN(C)C1 [Latrepirdine (dihydrochloride)]	1.083
CC(C)(CO)c1cc2cc(NC(=O)C3(c4ccc5c(c4)OC(F)(F)O5)CC3)c(F)cc2n1C[C@@H](O)CO	0.8597
O=C(OC[C@H]1O[C@@H](OC(=O)c2cc(O)c(O)c(OC(=O)c3cc(O)c(O)c(O)c3)c2)[C@H](OC(=O)c2cc(O)c(O)c(OC(=O)c3cc(O)c(O)c(O)c3)c2)[C@@H](OC(=O)c2cc(O)c(O)c(OC(=O)c3cc(O)c(O)c(O)c3)c2)[C@@H]1OC(=O)c1cc(O)c(O)c(OC(=O)c2cc(O)c(O)c(O)c2)c1)c1cc(O)c(O)c(OC(=O)c2cc(O)c(O)c(O)c2)c1	0.7941

Turning now to a further compound:
## Input Query Complete for Nc1cc(-c2ccncc2)c[nH]c1=O
## Output 0.861

###

Could you please report measured Cholesterol-free for the items listed next?
# System: NCI-H292 lung cancer cells
# experimentalDetails: FDA drug screening, complete media vs cholesterol-free media without statin (TABLE 1)
# Type: cell-based, human
# measurementConditions: NCI-H292 cells, cholesterol-free media without statin
Structures can show the parent of a compound that is named as a salt.
One number for each entry.

Example entries and their recorded answers appear below.
>>> print(df.to_string())
                                   compound                 assaysystem  recordedvalue
0  COc1cc(NS(C)(=O)=O)ccc1Nc1c2ccccc2nc2ccccc12  NCI-H292 lung cancer cells         0.3482
1  C=CC1=C(C(=O)O)N2C(=O)[C@@H](NC(=O)/C(=N\O)c3csc(N)n3)[C@H]2SC1  NCI-H292 lung cancer cells          1.244
2  CNc1ncc(-c2ccc3c(=O)c(C(=O)O)cn(C4CC4)c3c2C)cc1C  NCI-H292 lung cancer cells           1.08
3                         Nc1[nH]c(=O)ncc1F  NCI-H292 lung cancer cells          1.247
4  CC(C)(C)NC(=O)[C@H]1CC[C@H]2[C@@H]3CC[C@H]4NC(=O)C=C[C@]4(C)[C@H]3CC[C@]12C [Finasteride]  NCI-H292 lung cancer cells          1.209
5  O=C1CN2Cc3c(ccc(Cl)c3Cl)N=C2N1 [Anagrelide (hydrochloride)]  NCI-H292 lung cancer cells          0.988
6  CN(C)CCCN1c2ccccc2CCc2ccccc21 [Imipramine (hydrochloride)]  NCI-H292 lung cancer cells          1.052
7  CCn1cc(C(=O)O)c(=O)c2cc(F)c(N3CCNC(C)C3)c(F)c21 (stereo not shown) [Lomefloxacin (hydrochloride)]  NCI-H292 lung cancer cells          1.531
8  CN1CCN(c2cc3c(nn2)Oc2ccccc2N3C)CC1.Cl.Cl.O [Azaphen (dihydrochloride monohydrate)]  NCI-H292 lung cancer cells          1.204
9  Cc1nc2ccc(CN(C)c3ccc(C(=O)N[C@@H](CCC(=O)O)C(=O)O)s3)cc2c(=O)[nH]1  NCI-H292 lung cancer cells         0.3503

Please go through the list and note Cholesterol-free for each compound.
1. CC(C)(C)NC(=O)N[C@H](C(=O)N1C[C@H]2[C@@H]([C@H]1C(=O)NC(CC1CCC1)C(=O)C(N)=O)C2(C)C)C(C)(C)C (stereo partly shown)
2. O=S(=O)(O)Oc1ccc(C(c2ccc(OS(=O)(=O)O)cc2)c2ccccn2)cc1 [Sodium Picosulfate]
3. Nc1ccc(S(=O)(=O)NC(=O)c2ccccc2)cc1 [Sulfabenzamide]
4. CNC[C@H](O)c1cccc(O)c1
5. CC(C)n1nccc1-c1ncccc1COc1cccc(O)c1C=O
6. CC(C)COCC(CN(Cc1ccccc1)c1ccccc1)N1CCCC1 (stereo not shown) [Bepridil hydrochloride]
7. Cc1ncc([N+](=O)[O-])n1CC(O)CN1CCOCC1 (stereo not shown)

## Output
1. 1.3
2. 1.414
3. 1.412
4. 1.197
5. 1.146
6. 1.009
7. 1.15

Please go through the list and note Cholesterol-free for each compound.
1. Cn1c(=O)c2c(ncn2CC2OCCO2)n(C)c1=O
2. CCCCOc1ccc(OCCCN2CCOCC2)cc1 [Pramocaine (hydrochloride)]

## Output
1.338
1.301

###

Could you please report measured Complete for the items listed next?
# Test system: NCI-H292 lung cancer cells
# experimentalDetails: FDA drug screening, complete media vs cholesterol-free media without statin (TABLE 1)
# Assay type: cell-based, human
Counter-ions that a name gives are not always drawn.
Give bare numbers.

Example entries and their recorded answers appear below.
compound	assaySystem	recordedValue
CN1[C@@H]2CC[C@H]1C[C@@H](OC(=O)C(CO)c1ccccc1)C2 (stereo partly drawn) [Atropine (sulfate monohydrate)]	NCI-H292 lung cancer cells	1.139
Cc1ncc(CNC(=O)N(CCCl)N=O)c(N)n1 [Nimustine (hydrochloride)]	NCI-H292 lung cancer cells	1.016
C[C@]12C=CC(=O)N[C@@H]1CC[C@@H]1[C@@H]2CC[C@]2(C)[C@@H](C(=O)Nc3cc(C(F)(F)F)ccc3C(F)(F)F)CC[C@@H]12 [Dutasteride]	NCI-H292 lung cancer cells	0.8443
Cc1nnc(C(=O)NC(C)(C)c2nc(C(=O)NCc3ccc(F)cc3)c(O)c(=O)n2C)o1 [Raltegravir (potassium salt)]	NCI-H292 lung cancer cells	0.9188
COc1ccc(CCN(C)CCCC(C#N)(c2ccc(OC)c(OC)c2)C(C)C)cc1OC (stereo not drawn) [Verapamil (hydrochloride)]	NCI-H292 lung cancer cells	0.8558

Please go through the list and note Complete for each compound.
1. CN(C)C(=O)Oc1cccc([N+](C)(C)C)c1.[Br-] [Neostigmine (Bromide)]
2. CCN1CCCC(OC(=O)C(c2ccccc2)c2ccccc2)C1 (stereo not drawn) [Piperidolate]

## Output
1. 0.8252
2. 0.6819

Please go through the list and note Complete for each compound.
1. CC1(C)C[C@@H]1C(=O)N/C(=C\CCCCSC[C@H](N)C(=O)O)C(=O)O [Cilastatin]
2. C[N+]1(CC2CC2)[C@@H]2C[C@@H](OC(=O)[C@H](CO)c3ccccc3)C[C@H]1[C@@H]1O[C@@H]12.[Br-] (stereo partly drawn) [Cimetropium (Bromide)]

## Output
[0.8515, 0.8182]

###

# Tested on: NCI-H292 lung cancer cells
# experimentalDetails: FDA drug screening, complete media vs cholesterol-free media with simvastatin (TABLE 2)
# Assay type: cell-based, human
# measurementConditions: NCI-H292 cells, FDA drug library screen, complete media
Counter-ions that a name gives are not always drawn.
metricName: Complete Media
Give bare numbers.

Example entries and their recorded answers appear below.
In [3]: df
Out[3]:
                                   compound      metricname  recordedvalue
0                         Sc1ncnc2nc[nH]c12  Complete Media         0.9807
1  CCCOc1ccc(C(=O)OCCN(CC)CC)cc1N [Proparacaine (Hydrochloride)]  Complete Media          1.021
2  C[C@@H]1O[C@@H]1P(=O)(O)O [Fosfomycin (sodium)]  Complete Media          1.004
3                   CCCCCCCCCCCCN1CCCCCC1=O  Complete Media          0.883
4  NC(=O)c1cc[n+](CC2=C(C(=O)O)N3C(=O)[C@@H](NC(=O)[C@@H](c4ccccc4)S(=O)(=O)[O-])[C@H]3SC2)cc1 [Cefsulodin (sodium)]  Complete Media          1.113
5  Clc1ccc(C(OCCN2CCCCC2)c2ccccc2)cc1 (centres unmarked) [Cloperastine (hydrochloride)]  Complete Media          1.547
6  CC(C)C(=O)Oc1ccc(CO)cc1[C@H](CCN(C(C)C)C(C)C)c1ccccc1 [Fesoterodine (L-mandelate)]  Complete Media         0.9892

Turning now to a further compound:
## Input Query Complete Media for C[C@]12CC[C@@H]3c4ccc(O)cc4C[C@@H](CCCCCCCCC[S+]([O-])CCCC(F)(F)C(F)(F)F)[C@H]3[C@@H]1CC[C@@H]2O (some centres unmarked)
## Output 0.9579
